Biological target: Na^+,K+ -ATPase (Canis lupus familiaris, UniProt P50997)
Construct: Na^+,K+ -ATPase receptor purified according to Jorghensen; from tissue
Assay: inhibition of the activity of the purified Na^+,K+ -ATPase measured as % of hydrolysis of ^32 P-ATP
Type: biochemical
measured attribute: IC50 (µM)
API: value field is a number in µM; no unit string.

- item smiles: "C[C@]12CC[C@H](OCCCN)C[C@H]1CC[C@@H]1[C@@H]2CC[C@]2(C)[C@@H](/C=N/NC3=NCCN3)CC[C@]12O"
  assayed target: "Na^+,K+ -ATPase (Canis lupus familiaris, UniProt P50997)"
  IC50, µM: 3.98
- item smiles: "C/C(=N\\N=C(N)N)[C@H]1CC[C@]2(O)[C@@H]3CC[C@@H]4C[C@@H](O)CC[C@]4(C)[C@H]3CC[C@]12C"
  assayed target: "Na^+,K+ -ATPase (Canis lupus familiaris, UniProt P50997)"
  IC50, µM: 5.01

Data request: What value of IC50 has been reported for the following compound? "C[C@]12CC[C@H](O)C[C@H]1CC[C@@H]1[C@@H]2CC[C@]2(C)[C@@](O)(/C=N/NC3=NCCN3)CC[C@]12O"
Data returned: 12.6

Data request: Which IC50 reading was recorded for the compound "CN1CCN=C1N/N=C/[C@H]1CC[C@]2(O)[C@@H]3CC[C@@H]4C[C@@H](O)CC[C@]4(C)[C@H]3CC[C@]12C" ?
Data returned: 12.6

Data request: Requested field: IC50. Item: "C[C@]12CCC(=NNC(=N)N)C[C@H]1CC[C@@H]1[C@@H]2CC[C@]2(C)[C@@H](/C=N/NC(=N)N)CC[C@]12O"
Data returned: 5.01

Data request: # lookup: IC50 of "CSC(=N)N/N=C/[C@H]1CC[C@]2(O)[C@@H]3CC[C@@H]4C[C@@H](O)CC[C@]4(C)[C@H]3CC[C@]12C"
Data returned: 31.6

Data request: Dear colleague, I am looking for the recorded IC50 of the following compound: "CN(C)CCNC(=N)N/N=C/[C@H]1CC[C@]2(O)[C@@H]3CC[C@@H]4C[C@@H](O)CC[C@]4(C)[C@H]3CC[C@]12C"
Data returned: 25.1

Data request: Quick check: IC50 of "C[C@]12CC[C@H](O)C[C@H]1CC[C@@H]1[C@@H]2CC[C@]2(C)[C@@H](/C=N/N=C(\N)Nc3ccccc3)CC[C@]12O" ?
Data returned: 100

Data request: Item "C[C@]12CC[C@H](O)C[C@H]1CC[C@@H]1[C@@H]2CC[C@]2(C)[C@@H](/C=N/NC(=N)NC(=N)N)CC[C@]12O" has what recorded IC50?
Data returned: 7.94

###

Target: Na^+,K+ -ATPase (Canis lupus familiaris)
Construct: Na^+,K+ -ATPase receptor purified according to Jorghensen; from tissue
Test: displacement of the specific ^3 H-ouabain binding from the Na^+,K+ -ATPase receptor
Settings: purified Na^+,K+ -ATPase receptor; read-out: Binding ^3 H-Ouab. Displacement log IC50 (converted)
Quick reference: IC50 of the listed items.
Please respond with the number in nM and leave the unit unwritten.

- item smiles: "C[C@]12CC[C@H](O)C[C@H]1CC[C@@H]1[C@@H]2CC[C@]2(C)/C(=N/NC3=NCCN3)CC[C@]12O"
  IC50, nM: 2000
- item smiles: "C[C@]12CC[C@H](OCCN3CCCC3)C[C@H]1CC[C@@H]1[C@@H]2CC[C@]2(C)[C@@H](/C=N/NC3=NCCN3)CC[C@]12O"
  IC50, nM: 100
- item smiles: "C[C@]12CC[C@H](O)C[C@H]1CC[C@@H]1[C@@H]2CC[C@]2(C)[C@@](O)(/C=N/NC(=N)N)CC[C@]12O"
  IC50, nM: 1580

Data request: For the compound "C[C@]12CC[C@H](O)C[C@H]1CC[C@@H]1[C@@H]2CC[C@]2(C)[C@@H](/C=N/N=C(\N)Nc3ccccc3)CC[C@]12O" , what IC50 is on record?
Data returned: 6310

Data request: Using the record for "C[C@]12CC[C@H](OCCN3CCCC3)C[C@H]1CC[C@@H]1[C@@H]2CC[C@]2(C)[C@@H](/C=N/NC(=N)N)CC[C@]12O" , report its IC50.
Data returned: 39.8

Data request: Look up IC50: "CN(C)CCNC(=N)N/N=C/[C@H]1CC[C@]2(O)[C@@H]3CC[C@@H]4C[C@@H](O)CC[C@]4(C)[C@H]3CC[C@]12C"
Data returned: 1000
